Data provenance is the nanobody polyreactivity screen of Harvey et al. (2022).

# assay: yeast display, Sf9 membrane polyspecificity reagent, FACS + sequencing; frameworks hold sequencing errors
measurement label: polyreactivity (PSR sort gate)

Below: 4 sequences and their reported polyreactivity (PSR sort gate).
QVQLVESGGGLVQAGGSLRLSCAASGRILHGYAMGWYRQAPGKERELVAAITSSGGRTYYADSVKGRFTISRDNAKNTVYLQMNSLKPEDTAVYYCAADRPAYRTGDSKYDYWGQGTQVTVSS | low polyreactivity
QVQLVESGGGLVQAGGSLRLSCAASGSTFYAYTMGWYRQAPGKERELVADISRSGGSTYYADSVKGRFTISRDNAKNTVYLQMNSLKPEDTAVYYCAAASSYYRGHYDYWVQGTQVTVSS | high polyreactivity
QVQLVESGGGLVQAGGSLRLSCAASGITFYHYAMGWYRQAPGKERELVAAISSDDNTNYADSVKGRFTISRDNEKNTVYLQMNSLNPEVTAVYYCNKRSLKNEPRYDYWGQGTQVTVSS | high polyreactivity
QVQLVESGGGLVQAGGSLRLSCAASGNIFWSNAMGWYRQAPGKERELVAGITSSTGSTYYADSVKGRFTISRDNAKNTVYLQMNSLKPEDTAVYSCAARYRYYPVTTRGYYWGQGTQVTVSS | high polyreactivity

QVQLVESGGGLVQAGGSLRLSCAASGRIFYPYVMGWYRQAPGKERELVAAISDTTGSTYYADSVKGRFTISRDNAKNTVYLQMNSLKPEDTEVFYCAAGWFYATYWRFYYWGQGTQVTVSS yielded polyreactivity (PSR sort gate) of low polyreactivity

QVQLVESGGGLVQAGGSLRLSCAASGSTFYRYAMGWYRQAPGKEREFVAAITGSGGRTYYADSVKGRFTISRDNAKNTVYLQMNSLKPEDTAVYYCAARYYYFYQISYRYDYWGQGTQVTVSS yielded polyreactivity (PSR sort gate) of high polyreactivity

QVQLVESGGGLVQAGGSLRLSCAASGFTIYRYAMGWYRQAPGKERELVAAITWSGVSTYYADSVKGRFTISRDNAKNTVYLQMNSLKPEDTAVYYCAATTYSSSSSHDYWGQGTQVTVSS yielded polyreactivity (PSR sort gate) of low polyreactivity

QVQLVESGGGLVQAGGSLRLSGAASGRTLKWYAMGWYRQPPGKERELVAAISWSGGSTYYADSVKGRFTISRDNAKNTVYVQMNSLKPEDTAVYYCAAYYIYSSVGKSLYASMEYWGQGTQVTVSS yielded polyreactivity (PSR sort gate) of low polyreactivity

QDQLVESGGGLLQAGGTLRLSCAASGPTFRAKAMGWNRQSPGKERELVAAITWDGGSRYYADSVKGRFTISRDYAKNTVYLQMNSLKPEYTAVYYCNTYPYLWGQGTLVTVSS yielded polyreactivity (PSR sort gate) of low polyreactivity

QVQLVESGGGLVQAGGSLRLSCAASGRTFGEYVMGGYRQAPGKERELVASISRRGGSTYYADSVKGRFTLSRDNAKNTVYVLMNSQNPEDTAVYYCAKYRTQWSKNLYPYGFDYWGHGTQVTVSS yielded polyreactivity (PSR sort gate) of low polyreactivity

QVQLVESGGGLVQAGGSLRLSCAASGFIFGSYAMGWYRQAPGKERELVAAITSSGITYYADSVKGRFTISRDNAKNTVYLQMNSLKPEDTAVYYCAAEGSTYQGAPGVYYWGQGTQVTVSS yielded polyreactivity (PSR sort gate) of high polyreactivity

* * *

# assay: yeast display, Sf9 membrane polyspecificity reagent, FACS + sequencing; frameworks hold sequencing errors
measurement label: polyreactivity (PSR sort gate)

Below: 4 sequences and their reported polyreactivity (PSR sort gate).
QAQLVESGGGLVQAGGSLRLSCAASGSTSLDNAMGWYRQAPGKERELVAAIRWRGSITFYADSVKGRFTISRDNAKNTVYLQMNSLKPEDTAVYYCAVTLRYTRSGAYDYWGQGTQVTVSS | low polyreactivity
QVQLVESGGGLVQAGGSLRLSCAASGRTFISNAMGWYRQAPGKERELVADINGGGSTYYADSVKGRFTISRDNAKNTVYLQINSLKPEDTAVYYCAADVWTLDPDEYDYWGQGTQVTVSS | low polyreactivity
QVQLVESGGGLVQAGGSLRISCAASGSTFLYYAMGWYRQAPGKERELVAAISWDGGNTYYADSVKGRFTISRDNAKNTVYLQMNSLKPEDTAVYYFAAKHYGSYLYWFGSDYWGQGTQVTVSS | high polyreactivity
QVQLVESGGGLVQAGGSLRLSCAASGRIFYLYGMGWYRQAPGKERELVAAIDWSDGSTYYADSVKGRFTISRDNAKNTVYLQMNSLKPEDTAVYYCAADGWAAWLYDYWGQGTQVTVSS | low polyreactivity

QVQLVESGGGLVQAGGSLRLSCAASGFIFVSYSLGWYRQAPGKERELVAAIDRIGGITYYADSVKGRFTISRDNSKNTVYLQMNSLKPEDTAVYYCAAAASYATVRVGREYYWGQGTHVTVSS yielded polyreactivity (PSR sort gate) of low polyreactivity

QVQLVESGGGLVQAGGSLRLSCAASGSIFEWYAMGLYRQAPGKETELVAAISSGGRTYYADSVKGRFTISRDNAKNTVYLQMNSLKPEDTAVYYCAGRDVDHVGGSKYYYWGQGTQVTVSS yielded polyreactivity (PSR sort gate) of high polyreactivity

QVQLVESGGGLVQAGGRLRISCAASGSTFQPYAMGWYRQAPGKERELVAAISWRGGSTYYADSVKGRFTISRDNAKNTVYLQMNSLKPEDTAVSYCAAYFYFRRGTDYDYWGQGTQVTVSS yielded polyreactivity (PSR sort gate) of high polyreactivity

QVQRVESGGGLVQAGGSLRLSSAGSGFTYYRNAMGWYRQAPGKERELVAAISFSGGSTYYADSVKGRFTISRDNAKNTVYLQMNSLKPEDTAVYYCAREDYSHSFLTYDYWGQGTQLTVSS yielded polyreactivity (PSR sort gate) of low polyreactivity

QVQLVESGGGLVQAGGSLRLSCAASGFTFIRYSMGWYRQAPGKERELVATISRSGGRTYYADSVKGRFTISRDNAKNTVYLQMNSLKPEDTAVYYCNAEAIVLNGGGYWGQGTQVTVSS yielded polyreactivity (PSR sort gate) of high polyreactivity

QVQLVESGGGLVQAGGSLRLICSASGRTFAGYVMGWYRQAHGKERELVAAINASGGSTYYADSVKGRFTISRDNAKNTVYLQKNILKPEDTAVYYCAAARLGSDITRRYYYWGQGTQVTVSS yielded polyreactivity (PSR sort gate) of high polyreactivity

PVQLVESGGGLVQAGGSLRLSCAASGTIFFSNAMGWYRQAPGKEREFVATITSSGVGTYYADSVKGRFTISRDNAKNTVYLQMNSLTPEDTAVYYCAADLTISYSQEYYYWGQGTQVTVSS yielded polyreactivity (PSR sort gate) of low polyreactivity

* * *

# assay: yeast display, Sf9 membrane polyspecificity reagent, FACS + sequencing; frameworks hold sequencing errors
measurement label: polyreactivity (PSR sort gate)

Below: 4 sequences and their reported polyreactivity (PSR sort gate).
HVQLVESGGGLVQAGGSLRLSCAASGRIFAPYDMGWYRPAPGNERELVAAISRSGGSTYYADSVKGRFTSSRDNAKNTVYLQMNSLKPEDTAVYYCAASYPGRYWLYRYEYWGQGTQVTVSS | high polyreactivity
QVQLVESGGGLVQAGGSLRLSCAASGRTFGVYAMGWYRQAPGKERELVAGIRWRGGSTYYADSVKGRFTISRDNAKNTVYLQMNSLKPEDTAVYYCAADVYLVKYDYWGQGTQVTVSS | low polyreactivity
QVQLVESGGGLVQAGGSLRLISAASGSTIIRNAMGWYRQAPGKERELVAAISTSGGRTHYADSVKGRFTISRDNAKTTVYLQMNSLKPEDTAVYDCAASNGYQAVTYDYWGQGTQVTVSS | high polyreactivity
QVQLVESGGGLVQAGGSLRLSCAASGSIFYYNPMGWYRQAPGKERELVATISGRGGSTYYADSVKGRFTISRDNAKNTVYLQMNILKPEDTAVYYCNTVPSHHRHTKYDYWGQGTQVTVSS | low polyreactivity

QVQLVESGGGLVQAGGSLRLSCAASGFTFVGYVMGWYRQAPGKERELVAAISRRGRSTYYADSVKGRFTISRDNAKNTVYLQMNSLKPEDTAVYYCNKRWSSKSVQYDYWGQGTQVTVSS yielded polyreactivity (PSR sort gate) of high polyreactivity

* * *

# assay: yeast display, Sf9 membrane polyspecificity reagent, FACS + sequencing; frameworks hold sequencing errors
measurement label: polyreactivity (PSR sort gate)

Below: 8 sequences and their reported polyreactivity (PSR sort gate).
QVQLVESGGGLVQAGGILRLSCAASGFIFRRYAMGWYRQEPGKERELVAAINYSGGSTYYADSVKGRFTISRDNAKNTVYLKMNSLKPEDTAVYYCAAGSRRGIDPGSDYWGQGNQVTVSS | low polyreactivity
QVQLVESGRGLVQAGGSLRLSCAASGRIFYVYDMGWYRQAPGKESELVAAITQSGGRTYYADSVKGRFTISRDNAKNTVYLQRNSLKPEDTAVYYCAATWLGSRNLVHITLYYWGQGTQVTVSS | low polyreactivity
QVQLVESGGGLVQAGGSLRLSCAASGSTSLINVMGWYRQAPGKERELVAAISSSDGSTYYADSVKGRFTISRDNAKNTVYLQMNSLKPEDTAVYYCNADYYGYYGLMGYWGQGTLVTVSS | low polyreactivity
QVQLEESGGGLVQAGGSLRLSCAASGFNFDVYAMGWYRQAPGKERELVAAISRSGGSTYYADSVKGRFTISRDNAKNTFYLQMNSLKPEDTAVYYCATDLLNNVDYDYWGQGTQVTVSS | low polyreactivity
QDQHVESGGCLVQEGGSLRLSCAASGRTFSSNVMGWYRQAPGKVRELVASITWSGGTTYYADSVKGRFTISRDNAKNTVYLQMNSLKPEDTAVYYCNAADERSQGWVGYDHWGQCTQVTVSS | low polyreactivity
QVQLVESGGGLVQAGGSLRLSCAASGSTFIWNAMGSYRQAPGKERELVAAISSGGSTYYADSVKGRFTISRDNAKNTVYLQMNSLKPEDTAVYYCAAEYVYNVWEQRYAVYSTDDYWGQGTQVTVSS | low polyreactivity
QVHLVESGGGLVQAGGSLRLSCAASGSTFTYYAMGWYRQAPGKERELVAAISRRGGSTYYADSVKGRFTISRDNAKNTVYLQMNSLKPEDTAVYYCNVVIYSYGCNGRYDFWGQGTQVTVSS | high polyreactivity
QVQLVESGGGLVQAGGSLRLSCAASGFNFRSYAIGCYRQAPGKERELVAAITSTGGRTYYADSVKGRFTISRDNAKNTVYLQMNSLKPEETAVYYCAAGRKHYAPVHFGYWGQGTQVTVSS | high polyreactivity

QFQLVESGGGLVQAGGSLRLSCAASGIIFAGNAMGWYRQAPGKERELVAVITSVGSTYYADSVTGRFTISRDNAKNTVYLQMNSLKPEDTAVYYCNAVSWWRYDYCGQGTQVTVSS yielded polyreactivity (PSR sort gate) of high polyreactivity

QVQLVESAGGLVQAGGSLRLSCAASGSTFWIYTMGWYRQAPGKERELVAAITWSGGRTYYADSVKGRFTISRDNAKNTVYLQMNSLKPEDTAVYYCNADVYSYRPSTIQRYVLFDYWGQGTQVTVSS yielded polyreactivity (PSR sort gate) of low polyreactivity

QVQLVESGGGLVQAGGSLRLSCAASGRIFVVYAMGWSRQAPGKERELVAAIRSGGSTNYADSVKGRFTISRDNAKNTVYFQLNSLKPEDTAVYNCAARKWHSAYDYWGQGTQVTVSS yielded polyreactivity (PSR sort gate) of high polyreactivity
